Test: Half life in cynomolgus monkey at 2 mg/kg, iv
Type: ADME, organism-based, Macaca fascicularis
Details: in vivo
endpoint_label: half-life (h)
Numeric answer only, unit h assumed.

// half-life lookup, key: Cc1c(-c2c(F)cc(C(N)=O)c3[nH]c4c(c23)CC[C@H](C(C)(C)O)C4)cccc1-n1c(=O)c2cccc(F)c2n(C)c1=O (atropisomer R)
5.1

###

Assay: MRT in mouse at 3 mg/kg, iv
Type: ADME, organism-based
Settings: in vivo
endpoint_label: MRT (h)
Numeric answer only, unit h assumed.

// MRT lookup, key: Cc1c(-c2c(F)cc(C(N)=O)c3[nH]c4c(c23)CC[C@H](C(C)(C)O)C4)cccc1-n1c(=O)c2cccc(F)c2n(C)c1=O (atropisomer R)
4.8
